// values below are reported Kd
B1: NELF-E aptamer (parent)
chain: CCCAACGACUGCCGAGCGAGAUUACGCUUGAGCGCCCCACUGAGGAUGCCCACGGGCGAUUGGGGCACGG

variants of: B1; assay: HiTS-RAP; conditions: with NELF-E (Drosophila)
# unit: nM | format: bare number

(Q) Supply measured Kd of C9G A21U in your reply.
(A) 6.36

(Q) Using known records, supply Kd for A5U U47A
(A) 10.5

(Q) Could you please provide reported Kd for C6G A8U ? Thanks!
(A) 5.7

(Q) Respond only with Kd recorded for G16U G55A
(A) 7.53

(Q) Please report Kd for the following variant: G7U G26U
(A) 6.93

Continuing:
(Q) # return recorded Kd for input A5U G63A
(A) 9.5

(Q) Respond only with Kd recorded for C9G G20U
(A) 7.26

(Q) Consider the variant U22G G42A . State its measured Kd.
(A) 49.8

(Q) Read off the recorded Kd for A4U U29C
(A) 5.56
